Recorded TGI, one value per entry.
- System: HCT-15 colon
- TEST_SUMMARY: NCI tumour cell line growth inhibition, 48 h

O=C1N[C@@H](O)[C@@H]2ON=C(c3ccccc3)[C@H]12    > 100 µM
CC(=O)[CH-]C(C)=O.CC(=O)[CH-]C(C)=O.N=CC=N.[Sn+2]    7.14 µM
CC1(C)OC(CCO)CN1C(=O)OCc1ccccc1 (stereo not given)    > 100 µM
O=c1c(Cc2ccccc2)c(-c2ccccc2)[nH]n1C1=NCCN1    > 100 µM
CNC(=O)c1cn(C[C@H](F)CCc2ccc(NC(=O)Cc3cc(OC4CC(F)(F)C4)cc(C)n3)nn2)nn1    > 100 µM
COc1ccc(CCCCl)c(C2=NCCc3ccccc32)c1    > 100 µM

## Task Quick one: TGI for C=C(C)[C@@H]1CC[C@@]2(C(=O)O)CC[C@]3(C)C(CCC4[C@@]5(C)CCC(OS(=O)(=O)c6ccccc6)C(C)(C)C5CC[C@]43C)C12 (stereo not given in full) ?
## Result 19.9 µM

## Task Requested read-out: TGI. Entry: `N#Cc1c(-c2ccccc2)nc2c(c(-c3ccccc3)nn2-c2ccccc2)c1-c1ccc(O)cc1`
## Result 3.79 µM

## Task Give its TGI value. Item: `COn1cc(CO)c2ccccc21`
## Result > 100 µM

## Task Need TGI of `COc1cc(/C=C/C(=O)O)ccc1OS(=O)(=O)O` , thanks.
## Result > 100 µM

====

- Test system: SN12C renal
- TEST_SUMMARY: NCI tumour cell line growth inhibition, 48 h
Here the recorded TGI is given for each entry.

Clc1ccc(CNc2nc3ccccc3nc2-c2cccs2)c(Cl)c1    > 100 µM
CC/C=C\C/C=C\C/C=C\CCCCCCCC(=O)OC(COC(=O)CCCCCCCCCCCCCCCCC)COC1OC(CO)C(O)C(O)C1O (stereo unspecified)    > 25 µM
NC(=S)N=Nc1c(O)cc(Nc2ccc(Cl)cc2Cl)c2ccccc12    > 100 µM
Cc1cn(C2CC(OC(c3ccccc3)(c3ccccc3)c3ccccc3)C(COC(c3ccccc3)(c3ccccc3)c3ccccc3)O2)c(=O)[nH]c1=O (stereo unspecified)    > 100 µM
Cc1cccc(NC(Nc2cccc(C)c2)=C(C(Cl)=C(Cl)Cl)[N+](=O)[O-])c1    24 µM
Nc1nc(Nc2ccc(OCc3cccc(F)c3)cc2)c2c(n1)[nH]c1ccc(O)cc12    4.56 µM
COc1cc(/C=C\c2ccc(O)cc2)cc(OC)c1OC    > 53.6 µM
COc1ccc(C2C(C#N)=C(N)OC3=C2CCCc2ccc(F)cc23)cc1OC (stereo unspecified)    39.5 µM
COCC(=O)OC1CCn2c1nc1c2C(=O)C(C)=C(NC(C)=O)C1=O (stereo unspecified)    18.9 µM
CCN(C(=O)N[C@H](C(=O)N[C@@H](C)C(=O)OC)C(C)C)c1ccccc1    > 100 µM

## Task Name the recorded TGI for `CN(C)c1nc(=NCc2ccccn2)ss1` .
## Result > 10 µM

## Task Quick one: TGI for `CCC1(CC)C(=O)NC(=S)N=C1N` ?
## Result > 100 µM

## Task Report TGI for `CCCCCC(=O)Oc1ccc(/C(=C(\C)c2ccc(OC)cc2)c2ccc(OCCN3CCCCC3)cc2)cc1` please.
## Result 23.5 µM

## Task Could you tell me which TGI is on file for `CN(C)C(=S)/N=c1\ss/c(=N\S(=O)(=O)c2ccccc2)n1-c1ccccc1` ?
## Result > 100 µM

====

TGI: recorded values
- Tested on: HCC-2998 colon
- TEST_SUMMARY: NCI tumour cell line growth inhibition, 48 h

# example entries with known answers
Nc1nc(Nc2ccc(OCc3cccc(F)c3)cc2)c2c(n1)[nH]c1ccc(O)cc12    13.6 µM
COCC(=O)OC1CCn2c1nc1c2C(=O)C(C)=C(NC(C)=O)C1=O (stereo not given)    28.7 µM
CCC1C(=O)OCc2c1cc1n(c2=O)CCC12OCCO2 (stereo not given)    > 100 µM
CCOC(=O)Cc1nc(/C(C#N)=C/c2ccco2)[nH]c(=O)c1C#N    > 100 µM
Oc1ccc(Cc2ccccc2)c2cccnc12    16.6 µM
c1cc[c]([Sn]([S]c2cccc3cccnc23)([c]2ccccc2)[c]2ccccc2)cc1    0.096 µM
O=C(/C=C1\C[C@H]2C=Nc3ccccc3C(=O)N2C1)NCCCCCNC(=O)/C=C1\C[C@H]2C=Nc3ccccc3C(=O)N2C1    32.7 µM
COC(=O)NC/C=C\c1nc(CC/C=C\C(=O)OC2CC3CC(=O)O[C@@H](/C=C/CC(C)C)C[C@@H]4CCC(C)C(C[C@@H](OC)CC(C2)O3)O4)co1 (stereo not given in full)    19 µM
COc1cc2nc(-c3c(F)cccc3F)n(Cc3c(F)cccc3F)c2cc1Cc1c(F)cccc1F    > 100 µM
CC1=Nc2c(ccc3c2C(=O)c2ccccc2C3=O)NC(c2ccncc2)C1 (stereo not given)    > 100 µM

## Task // query TGI value for entry `O=c1oc2ccccc2c2nc3ccccc3cc12`
## Result > 100 µM

## Task Quick one: TGI of `CNC(=O)c1cc(Oc2ccc(NC(=O)Nc3ccc(Cl)c(OC(F)(F)F)c3)c(F)c2)ccn1` ?
## Result 7.08 µM

====

- Test system: K-562 leukemia
- TEST_SUMMARY: NCI tumour cell line growth inhibition, 48 h; in the data active = GI50 below about 0.43 µM; inactive = the rest
Give your call using only these classes: active, inactive

Worked examples, 7 molecules total:
Cc1c(C(=O)NN)nnn1-c1ccnc2c(C(F)(F)F)cccc12    inactive
C[C@H]1CCC/C=C/[C@@H]2C[C@H](N)C[C@H]2[C@H](O)/C=C/C(=O)O1    inactive
CS(=O)(=O)Nc1ccc(-c2ccc3c(NC(=O)C4CC4)n[nH]c3c2)cc1    inactive
CNC(=O)c1cn(C[C@H](F)CCc2ccc(NC(=O)Cc3cc(OC4CC(F)(F)C4)cc(C)n3)nn2)nn1    inactive
CCOC(=O)[C@@H](C)C[C@H](Cc1ccccc1)NC(=O)c1csc([C@@H](C[C@H](C(C)C)N(C)C(=O)[C@@H](NC(=O)[C@H]2CCCCN2C)C(C)(C)C)OC(C)=O)n1    active
CNc1nc(NC2CCCC2)nc(Sc2ccc(OC)cc2)n1    inactive
C=CC(=O)N1CCN(c2ncnc3c(F)c(-c4c(O)cccc4F)c(Cl)cc23)CC1    inactive

Then this molecule:
## Task State the result this test recorded for `CC1=C(C)C(=O)O[C@@H]([C@](C)(O)[C@]2(O)CC[C@@]3(O)[C@@H]4C[C@H]5O[C@]56CC=CC(=O)[C@]6(C)[C@H]4CC[C@]23C)C1` .
## Result active

====

Below: a set of entries, each annotated with reported TGI.
- Test system: SNB-19 CNS
- TEST_SUMMARY: NCI tumour cell line growth inhibition, 48 h

Some solved cases for reference:
CC1(C)OC(CCO)CN1C(=O)OCc1ccccc1 (stereo not given)    > 100 µM
CCCNCc1cc(C)cc2c1nc(N1CCNCC1)n2Cc1cc(C)c(F)c(C)c1    7.18 µM
O=c1c(Cc2ccccc2)c(-c2ccccc2)[nH]n1C1=NCCN1    > 100 µM
COc1cc(-c2c3c(cc4c2OCO4)[C@@H](Nc2ccc4c(c2)Cc2cc(N[C@@H]5c6cc7c(cc6C(c6cc(OC)c(O)c(OC)c6)[C@H]6C(=O)OC[C@H]56)OCO7)ccc2-4)[C@H]2COC(=O)[C@@H]2C3)cc(OC)c1O (stereo not given in full)    > 100 µM
NS(=O)(=O)c1ccc(NC(=O)c2cccc3c(=O)c4ccccc4[nH]c23)cc1    > 100 µM
COc1cc2nc(-c3c(F)cccc3F)n(Cc3c(F)cccc3F)c2cc1Cc1c(F)cccc1F    > 100 µM
COc1cc(CCCOC2OC(COC3OCC(O)C(O)C3O)C(O)C(O)C2O)cc2cc(-c3ccc4c(c3)OCO4)oc12 (stereo not given)    > 175 µM
C/C(=N\Nc1nc2ccccc2s1)c1cccnn1    > 100 µM

## Task Record lookup: for SNB-19 CNS, what TGI belongs to `Cc1sc(C)c(-c2ccc(CO)o2)c1-c1ccc(CO)o1` ?
## Result > 100 µM

## Task Give TGI (SNB-19 CNS) of the following molecule: CC(C)(C)C1(O)Cc2ccccc2C(=O)O1 (stereo not given)
## Result > 100 µM

====

- System: UACC-62 melanoma
- TEST_SUMMARY: NCI tumour cell line growth inhibition, 48 h
TEST_READOUT: TGI

Known TGI results, listed for orientation:
CCCSc1cc(Cl)nc(N)n1    > 100 µM
C=CC(=O)Nc1cccc(Nc2nc(Nc3ccc(OCCOC)cc3)ncc2F)c1    12.9 µM
Cc1c(-c2nc(N)nc(C3CC3)c2C)nc(N)nc1C1CC1    > 100 µM
CNC(=O)c1cn(C[C@H](F)CCc2ccc(NC(=O)Cc3cc(OC4CC(F)(F)C4)cc(C)n3)nn2)nn1    > 100 µM
COc1ccc2c(c1)[C@@]13CCN4CC5=CCO[C@H]6CC(=O)N2[C@H]1[C@H]6[C@H]5C[C@H]43    > 100 µM

## Task Lab note: need TGI with UACC-62 melanoma for entry `Cc1ccc(C(=O)c2[nH]c(Nc3cc(C)ccn3)c(C(=S)Nc3ccccc3)c2N)cc1` , please look it up.
## Result > 100 µM

## Task Identify the measured TGI of `COc1ccc(CCCCl)c(C2=NCCc3ccccc32)c1` for UACC-62 melanoma.
## Result > 100 µM

## Task Lab request: please report TGI under test system UACC-62 melanoma for CCC1C(=O)OCc2c1cc1n(c2=O)CCC12OCCO2 (stereo not given)
## Result > 100 µM

## Task Report TGI for `COc1ccc(/C=N/Nc2nc3ccccc3c(=O)n2-c2ccccc2)c(OCc2ccccc2)c1` tested on UACC-62 melanoma.
## Result > 100 µM

## Task Hello, I am looking for reported TGI with UACC-62 melanoma for `O=C(N/N=C/c1ccc(Cl)cc1Cl)c1ccccc1Nc1cccc(C(F)(F)F)c1` . Could you help?
## Result 58.4 µM
